tested-target: Melanocortin receptor 4 (Homo sapiens)
Sequence (P32245 whole entry): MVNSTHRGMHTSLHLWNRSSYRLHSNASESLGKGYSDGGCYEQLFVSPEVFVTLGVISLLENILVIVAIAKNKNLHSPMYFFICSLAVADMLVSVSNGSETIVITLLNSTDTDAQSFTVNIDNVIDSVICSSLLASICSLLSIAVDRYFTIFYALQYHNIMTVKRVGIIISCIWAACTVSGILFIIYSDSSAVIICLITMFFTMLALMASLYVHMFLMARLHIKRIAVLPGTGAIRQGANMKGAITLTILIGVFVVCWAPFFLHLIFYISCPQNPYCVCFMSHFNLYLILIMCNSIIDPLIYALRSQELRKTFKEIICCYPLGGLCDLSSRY
test-details: Intracellular cAMP accumulation in Melanocortin 4 receptor functional assay.
pEC50: −log10 of the molar value.
attribute-measured: pEC50

>>> result("CC(C)[C@H](NC(=O)[C@@H](N)Cc1ccc(O)cc1)C(=O)NC1CSSCC(C(=O)N[C@@H](CCCN=C(N)N)C(=O)N[C@@H](Cc2ccccc2)C(=O)NCC(N)=O)NC(=O)[C@H](Cc2c[nH]c3ccccc23)NC(=O)[C@H](CCCN=C(N)N)NC(=O)[C@@H](Cc2ccccc2)NC(=O)[C@H](Cc2c[nH]cn2)NC(=O)CNC1=O (stereo in doubt)")
6.60

Kindly give each listed record's pEC50.
1. CCCC[C@H](NC(=O)[C@@H](NC(=O)[C@@H](N)Cc1ccc(O)cc1)C(C)C)C(=O)NCC(=O)NC(C)(C)C(=O)N[C@@H](Cc1ccccc1)C(=O)N[C@@H](CCCN=C(N)N)C(=O)N[C@H](Cc1ccc2ccccc2c1)C(=O)N[C@@H](CC(=O)O)C(=O)N[C@@H](CCCN=C(N)N)C(=O)N[C@@H](Cc1ccccc1)C(=O)NCC(N)=O
2. CC(C)[C@H](NC(=O)[C@@H](N)Cc1ccc(O)cc1)C(=O)N[C@@H]1C(=O)NCC(=O)N[C@@H](Cc2cnc[nH]2)C(=O)N[C@@H](Cc2ccccc2)C(=O)N[C@@H](CCCNC(=N)N)C(=O)N[C@@H](Cc2c[nH]c3ccccc23)C(=O)N[C@H](C(=O)N[C@@H](CCCNC(=N)N)C(=O)N[C@@H](Cc2ccccc2)C(=O)NCC(N)=O)CSSC1(C)C

## Output
["< 5.00", "< 5.00"]
